# protocol details: folding enthalpy; higher = less favourable; fluorescence melt of hairpins on a sequencing array, two-state fit
# condition details: sodium 0.088 M
Entries are grouped by folding enthalpy into these classes: lower: < -40 kcal/mol; middle: ≥ -40 kcal/mol and < -20 kcal/mol; upper: ≥ -20 kcal/mol

Reference set (5 entries):
sequence text	class name
GGTCACACGAAAGTGACC (((..(((....))))))	middle
GACCCCGAAAGGGAGGTC ((((((....)))..)))	middle
GCAAGTTCGAAAGAATGC (((..(((....))))))	upper
GTGAACGGAAACGTTTGC (..((((....))))..)	middle
GGTTCACCGAAAGGTACC (((..(((....))))))	upper

Query: Please classify: GGGTGTGGAAACATACCC ((((.((....)).))))
Response: lower

Query: Field: class (folding enthalpy) — entry: GATCCCCTGCGGGATC ((((((....))))))
Response: middle

Query: Which bin should I file GATCGTCCTGACGATC ((((((....)))))) under?
Response: lower

Query: Which category does the recorded folding enthalpy put GCTCTTGGAAACAAGAGC (((((((....))))))) in?
Response: middle

Query: Bin this entry: GATCTCTCTGAGATC ((((((...))))))
Response: middle

---

# protocol details: melting temperature; fluorescence melt of hairpins on a sequencing array, two-state fit, raised by 9.35 °C to match UV melts
# condition details: sodium 0.088 M
Overview of recorded Tm for various sequences
Could you give the number and then its unit, please?

sequence text	quantity measured	measured
GACATACGAAAGTACGTC (((.(((....))).)))	Tm	42.5 °C
GTGTCTGGAAACAGGCAC (((.(((....))).)))	Tm	54.5 °C
GCGTGGCGACGC ((((....))))	Tm	65.1 °C
CGGAGCGGAAACGCCCCG (((.(((....))).)))	Tm	55.8 °C
GCCGGGCGAAAGCCTTGC ((..(((....)))..))	Tm	40.2 °C

Query: Which Tm is reported for this sequence? GGAACGACGAAAGTCTCC (((..(((....))))))
Response: 27.6 °C

Query: Which Tm is reported for this sequence? GTTCACGAAAGTGTAAAC ((((((....)))..)))
Response: 28.2 °C

Query: I would be grateful if you could share the reported Tm for GCTCTTGGAAACAAGGGC ((.((((....)))).)) .
Response: 50.6 °C

---

# protocol details: melting temperature; fluorescence melt of hairpins on a sequencing array, two-state fit, raised by 9.35 °C to match UV melts
# condition details: sodium 0.088 M
Quick reference for Tm among some sequences
Form entry: value (°C) — number only.

sequence text	measured
GCCTTGCGAAAGCATGGC (((.(((....))).)))	62.1
GGACCGGGAAACCGGTTC (.(((((....))))).)	59
GGTCCCGAAAGGGGAACC ((((((....)))..)))	48.5
GGGGGCGAAAGCCCTCCC ((((((....)))..)))	51.9
GTTCTGCGAAAGCAAAC (((.(((....))))))	36.9
GTTCGCACGAAAGTGAAC (((..(((....))))))	39
GATCCAAGCCTGGATC ((((((....))))))	50.6
GCCGTCGAAAGACAGGGC ((((((....)))..)))	54.4
GATCTCTGAGAGATC ((((((...))))))	52.1
GATCGATATGTCGATC ((((((....))))))	55

Query: Please report the recorded Tm for GATCAAGCCATTGATC ((((((....)))))) .
Response: 50.5

Query: What value of measured Tm is listed for GGGGACGGAAACACCCCC ((((..(....)..)))) ?
Response: 34.8

Query: Returns the measured Tm for the input sequence. Input: GGTGACGAAAGTCCGACC ((((((....)))..)))
Response: 39

---

# protocol details: melting temperature; fluorescence melt of hairpins on a sequencing array, two-state fit, raised by 9.35 °C to match UV melts
# condition details: sodium 0.088 M
quantity measured: Tm (°C)
Give the quantity in °C, number only.

Observe how each entry below is paired with its result.
sequence text	scale unit	Tm
GTAGCTGGAAACGGCTAC (((((.(....).)))))	°C	52.5
GATGGCGGAAACGCCGTC ((.((((....)))).))	°C	58.3
GCGTAGCGAAAGCTTTGC ((..(((....)))..))	°C	42.9
GCATCCGAAAGGAGTTGC ((((((....)))..)))	°C	37.9
CGATCGGAAACGACGTCG ((((((....)))..)))	°C	40.8

Query: Tm for GATCATATGATGATC ((((((...)))))) ?
Response: 48.1

---

# protocol details: melting temperature; fluorescence melt of hairpins on a sequencing array, two-state fit, raised by 9.35 °C to match UV melts
# condition details: sodium 0.088 M
Response field label: string, one of yes (Tm strictly below 50 °C) or no.

sequence text	class name
GCAACGCGAAAGCATGGC ((.(.((....)).).))	yes

Query: Lab note: confirm whether the reported Tm for this sequence is below 50 °C, equality not counting. sequence: GACCTCCGAAAGGACGTC (((.(((....))).)))
Response: yes

Query: Is Tm strictly under 50 °C for the entry GATCTCGGAGAGATC ((((((...)))))) ?
Response: no

Query: Hello, I'm reviewing records and need to know if Tm of GATCGTCGTGACGATC ((((((....)))))) is below 50 °C. Could you check?
Response: no

Query: Criterion: Tm strictly below 50 °C. Is it met by GTCTGAGGAAACTTGGAC (((..((....))..))) ?
Response: yes

Query: Hello, I'm reviewing records and need to know if Tm of GCTCTGCGAAAGCTGTGC ((.(.((....)).).)) is below 50 °C. Could you check?
Response: yes

Query: Criterion: Tm strictly below 50 °C. Is it met by GGTGATGGAAACATCACC (((((((....))))))) ?
Response: no

Query: Dear reviewer, please state whether GCTAAGCGAAAGCATAGC ((((.((....)).)))) has Tm strictly beneath 50 °C.
Response: no

Query: Does the reported Tm of the following sequence sit strictly below 50 °C? GTGTTCGAAAGAAACCAC ((((((....)))..)))
Response: yes

Query: Would you kindly verify if Tm of GTAAGGAAACTTAC (((((....))))) is strictly less than 50 °C?
Response: yes

Query: Is it true that Tm reported for GCCAATCGAAAGATGGGC (((.(((....))).))) is less than 50 °C?
Response: no

Query: Identify whether the sequence GCCGAGCGAAAGCTGGGC (((.(((....))).))) records Tm below 50 °C.
Response: no

Query: For this sequence, is Tm lower than 50 °C? GGCTACTCGAAAGAGGCC (((..(((....))))))
Response: yes

Query: Please let me know if GAGCAAGGAAACTTGCTC (((((((....))))))) shows Tm below 50 °C.
Response: no

Query: Check if Tm falls below 50 °C for GCGTTAGCGAAAGCTCGC (((..(((....)))))) .
Response: yes

Query: Lab log: compare recorded Tm with 50 °C; is it strictly lower for GTGACGGGAAACCGTCGC (.(((((....))))).) ?
Response: no

Query: State whether 50 °C exceeds Tm recorded for GTCGAGCGAAAGCTGGAC (((.(((....))).))) .
Response: no

Query: # check: Tm < 50 °C for GCATACGAAAGTATGC ((((((....))))))
Response: no

Query: State whether 50 °C exceeds Tm recorded for GTCACTACGAAAGTAGAC (((..(((....)))))) .
Response: yes

---

# protocol details: melting temperature; fluorescence melt of hairpins on a sequencing array, two-state fit, raised by 9.35 °C to match UV melts
# condition details: sodium 0.088 M
sequences and their reported Tm
Write the number in °C without appending the unit.

Some sequences with known Tm results, for comparison:
sequence text	measured
GTTTGCCGAAAGGCAAC (((.(((....))))))	50.4
CGACCGGAAACGGGTTCG ((((((....)))..)))	38.9
GCAATTCCGAAAGGATGC (((..(((....))))))	38
GTGTGCGGAAACGTGCAC (((..((....))..)))	52.9
GATCCTGCATAGGATC ((((((....))))))	60.9

Query: Requested field: Tm. Item: GCGGATGACCGC ((((....))))
Response: 54.8

Query: # lookup: Tm of GTCCGGTCGAAAGACGAC (((..(((....))))))
Response: 38.5

Query: // lookup Tm for GATCCAGTATTGGATC ((((((....))))))
Response: 57.4

Query: Name the recorded Tm for CAAACAGAAATGGTTG (((.((....)).))) .
Response: 29.4

Query: Recorded Tm of GTGATCCGAAAGGAACAC (((.(((....))).))) , please.
Response: 53.6

Query: Consider the sequence shown here: GGAGAATCGAAAGATTCC (((..(((....)))))) What is its recorded Tm?
Response: 38.1

Query: Form field: reported Tm of GCCTGGCGAAAGCAATGC ((.(.((....)).).))
Response: 26.9
